- Tested on: Malme-3M
- test-method-notes: NCI tumour cell line growth inhibition, 48 h
Active and inactive are the calls of the source. Cut-off read from the data, not from the text of the source: active = GI50 up to about 1.1 µM and inactive = higher.
// one of active, inactive, no free text

Solved cases below.
1) COc1ccc(O[C@H](CO)C[C@@H]2COC(C)(C)O2)cc1: inactive
2) COC(=O)c1cn(CCCC(=O)O)nn1: inactive
3) Cc1[nH]c2c(c1C)S(=O)(=O)c1cc3ccccc3nc1N2: inactive
4) O=C(NCCN1CCCC1)c1cn2c(ccc3sc4ccccc4c(=O)c32)n1: inactive
5) CC1(C)N=C(N)N=C(N)N1c1ccc(CCCCc2ccc(Cl)cc2Cl)cc1: active
6) [N-]=[N+]=Nc1cc(=O)oc2ccccc12: inactive
7) O=C(O)CSc1nnc(COc2ccccc2)n1-c1ccccc1: inactive
8) O=C(O)C(CS)NCc1c2ccccc2nc2ccccc12 (stereo unspecified): inactive

Hello, I am checking results. What call was entered for COC1=CC(=O)c2c(c(COP(=O)(N(C)CCBr)N(C)CCBr)cn2C)C1=O ?
active

Hello, I am checking results. What call was entered for COC(=O)C1CCc2c(OC)ccc(OC)c2C1=O (stereo unspecified) ?
inactive

Hello, I am checking results. What call was entered for CC1=NN(C(=O)c2ccc(Cl)cc2)C(=O)/C1=C/c1ccccc1O ?
inactive

* * *

- Test system: HCT-116
- test-method-notes: NCI tumour cell line growth inhibition, 48 h
The source made the active and inactive calls. Rule as the data show it: active = GI50 up to about 1.1 µM and inactive = higher. Where a SMILES comes first, the peptide text is derived from it. The star is where a group is joined. Boc = CC(C)(C)OC(=O)*
Let's look at some compounds and their measured GI50.

These solved cases illustrate the format of a correct answer.
1. O=C(c1ccco1)N(C(=O)N1CCC(c2ccccc2)CC1)c1ccccc1: 42.7 µM (inactive)
2. O=C(O)Cc1ccc(Oc2nc3ccccc3nc2-c2cccs2)cc1: 54.6 µM (inactive)
3. C[C@@H]1C[C@@H](O)[C@@]2(O)C13CC(=O)OC(C3)[C@@H](C)[C@@]2(C)CO (stereo not given in full): > 100 µM (inactive)
4. CCOC(=O)C(CC(C)C)NC(=O)C(Cc1ccccc1)NC(=O)CNC(=O)OC(C)(C)C (stereo not drawn) (Boc-Gly-Phe-Leu-OEt; configuration not given here): 17.9 µM (inactive)
5. CC(=O)OCC1OC(N2C(=O)[C@@H](Oc3ccccc3)[C@H]2/C=C/c2ccccc2)C(OC(C)=O)C(OC(C)=O)C1OC(C)=O (stereo not given in full): > 100 µM (inactive)
6. Cc1cc(Cl)cc2c1NC(=O)C2(O)CC(=O)c1ccco1 (stereo not given): > 77.3 µM (inactive)
7. COc1cc(C2=C(C#N)C(N)OC3=C2COc2ccccc23)cc(OC)c1OC (stereo not given): 16.7 µM (inactive)
8. C=CC[C@H](N=C(SC)SC)C(=O)N1C(=O)N(C)[C@@H](C)[C@H]1c1ccccc1: 33 µM (inactive)

Check HCT-116 data and give GI50 for COC1(OC)CCCCC2c3cccc(OC(C)=O)c3C21OC(C)=O (stereo not given) .
57.9 µM (inactive)

Check HCT-116 data and give GI50 for Cn1c(=O)c2c(O)cc(N)nc2n(C)c1=O .
> 100 µM (inactive)

Check HCT-116 data and give GI50 for COc1ccc2[nH]c3c(C)cc([N+](=O)[O-])c(C)c3c2c1 .
17.9 µM (inactive)

Check HCT-116 data and give GI50 for Cc1cc(S(=O)(=O)Nc2nc(N)nc(N3N=CCC3C)n2)c(SCC(=O)O)cc1Cl (stereo not given) .
> 10 µM (inactive)
